test: NCI Yeast Anticancer Drug Screen. Data for the mlh1 rad18 strain (AID 175); conditions: S. cerevisiae mlh1 rad18 strain growth inhibition; at 50.0 µM; hits give high values
Compounds without any hit were thinned out: in the full panel of roughly 79,000, 15% have a hit.
Consider the following compounds and their measured growth inhibition readings.
Write it as a number; the unit % goes unstated.

{"columns": ["Compound", "Observable", "Measured"],
 "data": [
  ["OC(CBr)c1cc(-c2ccccc2)nc2c(Cl)cc(Cl)cc12 (stereo not given)", "growth inhibition", 50.8]
]}

Exercise: Consider the compound shown here: Cc1ccc(S(=O)(=O)Nc2ccc(S(C)(=O)=O)cc2)cc1 What is its recorded growth inhibition?
Key: 3.3

Exercise: O=[N+]([O-])c1ccc(N=Nc2c(O)[nH]c3ccc(Br)cc23)cc1 ?
Key: 15.3

Exercise: CCc1ccccc1N1C(=O)C(=O)C(c2nc3ccccc3s2)C(=O)C1=O ?
Key: 10.3

Exercise: CC(=O)c1c(C)cc2cccc(OC3OC(CO)C(O)C(O)C3O)c2c1O (stereo not given) (tested in a mixture with another compound) ?
Key: -56.3

Exercise: COC(=O)c1cc(O)c(C(=O)OC)s1 ?
Key: 11.2

Exercise: COCC(=O)C(C(C)=O)C(c1ccncc1)C(C(C)=O)C(=O)COC (stereo not given) ?
Key: -20.4

Exercise: O=[N+]([O-])c1ccc(S(=O)(=O)N/N=C/C=C/c2ccccc2[N+](=O)[O-])cc1 ?
Key: 39.1
